Test system: Bacillus subtilis
assay-name: cleaved RNA product abundance (RNA/gDNA barcode ratio) relative to median wild-type variant (ratio to wild type); higher = more accumulation of the downstream cleavage product
condition-context: experiment (reporter, strain, medium): exp 8a: truncated aprE reporter, strain BJT201 with 2% xylose (RNase J1 expressed); cleavage site: glnRA (positions -5 to +31 mutated)
Please note: satisfied applies when cleaved RNA product abundance is 0.7 or greater, and not satisfied applies otherwise.

Given "CGACATGTCCCGCTTCTTTCATTAATCCGTTAGCAAATGGTTTGCTATATACATTTACCTTTTAAGAGGAGGAAT" , state whether its cleaved RNA product abundance is at least 0.7.
satisfied

Given "CGACATGTCCCGCTTCTTTCATTAATCCGTTAACAACTGTTTTGCTATATACATTTGCATTTTAAGAGGAGGAAT" , state whether its cleaved RNA product abundance is at least 0.7.
not satisfied

Given "CGACATGTCCCGCTTCTTTCATTAATCCGTTAGCAACTGTTTTGCCAGATACATTTACCTTTTAAGAGGAGGAAT" , state whether its cleaved RNA product abundance is at least 0.7.
not satisfied

Given "CGACATGTCCCGCTTCTTTCATTAATCCGTTAGCAACTGTTTTGCTATATTACATTTACCTTTTAAGAGGAGGAA" , state whether its cleaved RNA product abundance is at least 0.7.
not satisfied

Given "CGACATGTCCCGCTTCTTTCATTAATCCATTAGCAACTGTTTTGCTATATACATTTTACTTTTAAGAGGAGGAAT" , state whether its cleaved RNA product abundance is at least 0.7.
satisfied

Given "CGACATGTCCCGCTTCTTTCATTAATCCGTTACCAACTGTTTTGCTATATACATTTATCTTTTAAGAGGAGGAAT" , state whether its cleaved RNA product abundance is at least 0.7.
not satisfied

Given "CGACATGTCCCGCTTCTTTCATTAATCCGTTAGCAACCTTTTTGCTATATACATTTACCTTTTAAGAGGAGGAAT" , state whether its cleaved RNA product abundance is at least 0.7.
satisfied

Given "CGACATGTCCCGCTTCTTTCATTAATCCGTTAGCAACTGTTTTGCTATATACCTTAACCTTTTAAGAGGAGGAAT" , state whether its cleaved RNA product abundance is at least 0.7.
not satisfied

Given "CGACATGTCCCGCTTCTTTCATTAATCTATTAGCAACTGTTTTGCTATTTACATTTACCTTTTAAGAGGAGGAAT" , state whether its cleaved RNA product abundance is at least 0.7.
not satisfied

Given "CGACATGTCCCGCTTCTTTCATTAATCCGTTAGCAACTTTTTTGCTATAAACATTTACCTTTTAAGAGGAGGAAT" , state whether its cleaved RNA product abundance is at least 0.7.
satisfied

* * *

So I've got a bunch of sequences here, and I need their cleaved RNA product abundance values.
Test system: Bacillus subtilis
assay-name: cleaved RNA product abundance (RNA/gDNA barcode ratio) relative to median wild-type variant (ratio to wild type); higher = more accumulation of the downstream cleavage product
condition-context: experiment (reporter, strain, medium): exp 8a: truncated aprE reporter, strain BJT201 with 2% xylose (RNase J1 expressed); cleavage site: glnRA (positions -5 to +31 mutated)
Enter a number only.

I am curious: what cleaved RNA product abundance value has been reported for "CGACATGTCCCGCTTCTTTCATTAATCCGTTTGCACCTGTTTTGCTATATACATTTACCTTTTAAGAGGAGGAAT" ?
0.295

I am curious: what cleaved RNA product abundance value has been reported for "CGACATGTCCCGCTTCTTTCATTAATCTGTTAGCAACTGTTTTGCTATATACATTTACCTTTTAAGAGGAGGAAT" ?
1.16

I am curious: what cleaved RNA product abundance value has been reported for "CGACATGTCCCGCTTCTTTCATTAATCCGTTTTCAACTGTTTTGCTATATACATTTACCTTTTAAGAGGAGGAAT" ?
0.247
